// data source = the RNAGym collection of RNA variant scans (doi:10.7554/elife.80360)

B1: Twister Ribozyme (parent)
chain: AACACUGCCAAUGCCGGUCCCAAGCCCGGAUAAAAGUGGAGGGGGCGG

- Variants of: B1
- experiment_description: self-cleavage, relative activity (ratio to wild type); higher = more cleavage; co-transcriptional
# binarize self-cleavage: threshold 0.2 inclusive, high side criterion met, low side criterion not met

Solved cases below.
entry_sequence | assigned_label
AACCCUGCCAAUGCCGGUCCCAAGCCCGGAUAAAAGUGGAGGGGGCCG [A4C G47C] | criterion not met
AACACUGCCAAUGCCGGUCCGAAGCCCGGAUAAAAGUGGGGGGGGCGG [C21G A40G] | criterion not met
AACACUGCCAAUGCCGCUCCCAAGGCCGGAUAAAAGUGGAGGGGGCGG [G17C C25G] | criterion not met
AACACUGCCAAUGCCGGACCCAAGCCCGGUUAAAAGUGGAGGGGGCGG [U18A A30U] | criterion met
AACACUGCCAAUGCCGGUCCCAAGCUCGGAUAAAAGUGGAUGGGGCGG [C26U G41U] | criterion not met
AACAAUGCCAAUGCCGGUCCCAAGCCCGGAUAAAAGUGGAGGGUGCGG [C5A G44U] | criterion met
AACACGGCCAAUGCCGGUCCCAAGCCCGGAUAAAAGUGGAGGGCGCGG [U6G G44C] | criterion met
AACACUGCCUAUGCCGGUCCCAAGCCCGGAUAAGAGUGGAGGGGGCGG [A10U A34G] | criterion met

Exercise: Hi team, for AACACUGCCAAUGCCGGUCCCAAGCCCGGAAAAAAGUGGGGGGGGCGG [U31A A40G] , is the recorded self-cleavage at or above 0.2?
Solution: criterion not met

Exercise: // same read-out, input: AUAACUGCCAAUGCCGGUCCCAAGCCCGGAUAAAAGUGGAGGGGGCGG [A2U C3A]
Solution: criterion not met

Exercise: Okay, and AACACUGCCAUUGCCGGUCCCAAGCCCGGAUAAAAGUGGAGGGGGCGC [A11U G48C] ?
Solution: criterion met

Exercise: Can you check AACACUGCAAAUGCCGGUCCCAAGCCCGGAUAAAAGUGGAGGGGGCAG [C9A G47A] next?
Solution: criterion met

Exercise: # repeat for AACACUACCAAUGCCGGUCCCAAGCCCGGAUGAAAGUGGAGGGGGCGG [G7A A32G]
Solution: criterion met

Exercise: Same for AACACUGCUAAUGCCGGUCCCAAGCCCGGAUAAAAGUGGAGGGUGCGG [C9U G44U]
Solution: criterion met

Exercise: And then AACACUGCAAAUGCCUGUCCCAAGCCCGGAUAAAAGUGGAGGGGGCGG [C9A G16U] , what is it?
Solution: criterion met
